target: Glucose transporter (Leishmania mexicana) (UniProt O61059); assay: ST_JUDE_LEISH: Cytotoxicity at 2uM final concentration against transgenic Leishmania Mexicana promastigotes LmGT2 that are glucose transport deficient and complemented with the L. Mexicana glucose transporter 2. Activity is measured by DNA content using SYBR green in vitro; assay type: functional
Readout label: inhibition (%)
The reply should be a number in %, with the unit left off.

Q: What value of measured inhibition is listed for COc1ccc(-c2nc(NC(=O)CS(=O)(=O)c3ccc(OC)cc3)sc2C)cc1 ?
Ans: 3.47

Q: Input Cc1cc(Nc2cccc(C(F)(F)F)c2)nc2ccc(NC(=O)c3ccc(=O)[nH]c3)cc12
Ans: -0.59

Q: Input O=C(Cn1cc(C(F)(F)F)cc(Cl)c1=O)N1CCN(S(=O)(=O)c2ccc(Cl)cc2)CC1
Ans: -0.25

Q: Input CCc1c(CCNCCCCCCNCCc2ccc3c(c2C)OCO3)ccc2c1OCO2
Ans: 10.6

Q: Input Cc1cccc(CN2CCCC3(CCN(Cc4ccccc4O)C3)C2)c1 (stereo not given)
Ans: -0.38

====

biological target: Hexose transporter 1 (Plasmodium falciparum); experiment: ST_JUDE_LEISH: Cytotoxicity at 2uM final concentration against transgenic Leishmania Mexicana promastigotes LmPfHT that are glucose transport deficient and complemented with the Plasmodium falciparum hexose transporter. Activity is measured by DNA content using SYBR green in vitro; type: functional
In this section we review reported inhibition values for a set of molecules.
The reply should be a number in %, with the unit left off.

INSERT INTO measurements (molecule, quantity_unit, meas_value) VALUES
  ('Oc1ccc(CCNc2nc(NCCCOc3cccc(CN4CCCCC4)c3Cl)nc(N3CCNCC3)n2)cc1', '%', 1.93),
  ('Cc1nc(-c2cccc(Nc3nccc(NCC(O)c4cccc(F)c4)n3)c2)cs1 (stereo not drawn)', '%', -0.36);

Q: What value of measured inhibition is listed for COC(=O)Cn1c(C2CCN(CC3CCN(C(=O)/C=C/c4ccc(Cl)c(Cl)c4)CC3)CC2)nc2ccccc21 ?
Ans: 0.62

Q: Input CNc1ccc(CNCc2cccc(-c3ccc(-c4nc5ccccc5[nH]4)cc3)c2)cc1
Ans: -1.69

Q: Input Nc1ccc(-c2nc3cc(Oc4ccc5[nH]c(-c6ccc(N)cc6)nc5c4)ccc3[nH]2)cc1
Ans: 0.6

Q: Input CCCC(=O)Nc1ccc(OCCN(Cc2ccccc2OC(F)(F)F)c2ccc(C(F)(F)F)c(C#N)c2)cc1
Ans: 1.7

Q: Input NC1CCCN(Cc2cccc(-c3ccc(-c4nc5ccccc5[nH]4)s3)c2)C1 (stereo not drawn)
Ans: 0.63

Q: Input COc1ccccc1CCNc1nc(C)cc(N[C@@H](CC(C)C)C(=O)NCCc2ccccc2)n1
Ans: 5.72

Q: Input CCn1cc(-c2cc(C(=O)Nc3ccc(OC)cc3C)c3ccccc3n2)c(C)n1
Ans: 4.56

====

target: Glucose transporter (Leishmania mexicana) (UniProt O61059); assay: ST_JUDE_LEISH: Cytotoxicity at 2uM final concentration against transgenic Leishmania Mexicana promastigotes LmGT2 that are glucose transport deficient and complemented with the L. Mexicana glucose transporter 2. Activity is measured by DNA content using SYBR green in vitro; assay type: functional
In this section we review reported inhibition values for a set of compounds.
The reply should be a number in %, with the unit left off.

A selection of reference data follows.
INSERT INTO assay_data (compound, readout_label, quantity_unit, meas_value) VALUES
  ('Cc1cccc2nc(-c3cccc(-c4cccc(CN5CCN(c6ccc(C#N)cn6)CC5)c4)c3)[nH]c12', 'inhibition', '%', 9.4),
  ('CCCCCCn1c(Sc2ccc(C#N)c([N+](=O)[O-])c2)nnc1-c1ccc(N(C)C)cc1', 'inhibition', '%', 15.3),
  ('Cc1cccc(CN2CCCN(Cc3cccc(C(=O)Nc4ccc(C(C)(C)C)cc4)c3)CC2)c1', 'inhibition', '%', 1.26),
  ('O=S(=O)(Nc1ccc(CCN2CCC(N3CCCCC3)CC2)cc1)c1ccc2ccccc2c1', 'inhibition', '%', 4.79),
  ('COc1cc2nc(NCC3CCCO3)n3nc(-c4ccccc4)nc3c2cc1OC (centres undefined)', 'inhibition', '%', 2.53);

Q: Given the entry Cc1ccccc1C1CCN(C2CCC(NC(=O)/C=C/c3cc(C(F)(F)F)ccc3F)CC2)CC1 (centres undefined) , what inhibition was observed with Glucose transporter (Leishmania mexicana) (UniProt O61059)?
Ans: 3.34

Q: Input O=C(Cc1cccs1)NC(CCCN1CCC(Oc2cccc(Cl)c2)CC1)c1ccc(Cl)c(Cl)c1 (centres undefined)
Ans: -1.89

Q: Input O=C1COc2ccc3ccccc3c21
Ans: -0.4

Q: Input CCc1cn2c3c(cc(C(=O)N[C@@H](Cc4cc(F)cc(F)c4)[C@H](O)CNC4CC4)cc13)N(C)S(=O)(=O)CC2
Ans: 3.48
